Below, each of the variants is paired with its reported protein stability index value.
B1: FAM46D (parent)
chain: FQEAMTHLQHKLICTRKPEEIRGG

- Variants of: B1
- protocol: protein stability index of a GFP-peptide fusion (GPS, HEK-293T) (PSI 1-6); higher = more stable;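 further: lentivirally expressed fusions sorted by FACS into six bins by GFP to DsRed ratio, PSI derived from sequencing read proportions per bin multiplied by bin number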
- condition: c terminus: a fixed tail appended
In your answer, state the number alone without any accompanying words.

Please review the following examples before continuing.
Prompt: Item under review: "M5Y" . Reported protein stability index?
Response: 2.16

Prompt: Item under review: "E20V" . Reported protein stability index?
Response: 2.38

Prompt: Item under review: "L12K" . Reported protein stability index?
Response: 2.9

Next:
Prompt: Item under review: "L8Q" . Reported protein stability index?
Response: 3.68

Prompt: Item under review: "G24K" . Reported protein stability index?
Response: 3.34

Prompt: Item under review: "K11D" . Reported protein stability index?
Response: 2.88

Prompt: Item under review: "C14P" . Reported protein stability index?
Response: 2.33

Prompt: Item under review: "K17Y" . Reported protein stability index?
Response: 1.85

Prompt: Item under review: "I21C" . Reported protein stability index?
Response: 2.73

Prompt: Item under review: "E19M" . Reported protein stability index?
Response: 1.58

Prompt: Item under review: "M5E" . Reported protein stability index?
Response: 4.43

Prompt: Item under review: "M5V" . Reported protein stability index?
Response: 2.97

Prompt: Item under review: "L8F" . Reported protein stability index?
Response: 2.42

Prompt: Item under review: "H7D" . Reported protein stability index?
Response: 3.54

Prompt: Item under review: "P18F" . Reported protein stability index?
Response: 2.61

Prompt: Item under review: "Q2I" . Reported protein stability index?
Response: 2.01

Where do these numbers come from? They come from the supplement of paper PMC10567573.
